What Geometric Mean : FL6-A was measured for each of the following?
# assay.system: T1, human MUC1 on cells (DA3-TM transfectants and human cancer cell lines SKOV3, COLO357, HT29 and others) (human, UniProt P15941 24-1255)
# T1 construct: also called MUC1-SEA; surface MUC1
# T1 sequence (P15941 24-1255 limits assumed): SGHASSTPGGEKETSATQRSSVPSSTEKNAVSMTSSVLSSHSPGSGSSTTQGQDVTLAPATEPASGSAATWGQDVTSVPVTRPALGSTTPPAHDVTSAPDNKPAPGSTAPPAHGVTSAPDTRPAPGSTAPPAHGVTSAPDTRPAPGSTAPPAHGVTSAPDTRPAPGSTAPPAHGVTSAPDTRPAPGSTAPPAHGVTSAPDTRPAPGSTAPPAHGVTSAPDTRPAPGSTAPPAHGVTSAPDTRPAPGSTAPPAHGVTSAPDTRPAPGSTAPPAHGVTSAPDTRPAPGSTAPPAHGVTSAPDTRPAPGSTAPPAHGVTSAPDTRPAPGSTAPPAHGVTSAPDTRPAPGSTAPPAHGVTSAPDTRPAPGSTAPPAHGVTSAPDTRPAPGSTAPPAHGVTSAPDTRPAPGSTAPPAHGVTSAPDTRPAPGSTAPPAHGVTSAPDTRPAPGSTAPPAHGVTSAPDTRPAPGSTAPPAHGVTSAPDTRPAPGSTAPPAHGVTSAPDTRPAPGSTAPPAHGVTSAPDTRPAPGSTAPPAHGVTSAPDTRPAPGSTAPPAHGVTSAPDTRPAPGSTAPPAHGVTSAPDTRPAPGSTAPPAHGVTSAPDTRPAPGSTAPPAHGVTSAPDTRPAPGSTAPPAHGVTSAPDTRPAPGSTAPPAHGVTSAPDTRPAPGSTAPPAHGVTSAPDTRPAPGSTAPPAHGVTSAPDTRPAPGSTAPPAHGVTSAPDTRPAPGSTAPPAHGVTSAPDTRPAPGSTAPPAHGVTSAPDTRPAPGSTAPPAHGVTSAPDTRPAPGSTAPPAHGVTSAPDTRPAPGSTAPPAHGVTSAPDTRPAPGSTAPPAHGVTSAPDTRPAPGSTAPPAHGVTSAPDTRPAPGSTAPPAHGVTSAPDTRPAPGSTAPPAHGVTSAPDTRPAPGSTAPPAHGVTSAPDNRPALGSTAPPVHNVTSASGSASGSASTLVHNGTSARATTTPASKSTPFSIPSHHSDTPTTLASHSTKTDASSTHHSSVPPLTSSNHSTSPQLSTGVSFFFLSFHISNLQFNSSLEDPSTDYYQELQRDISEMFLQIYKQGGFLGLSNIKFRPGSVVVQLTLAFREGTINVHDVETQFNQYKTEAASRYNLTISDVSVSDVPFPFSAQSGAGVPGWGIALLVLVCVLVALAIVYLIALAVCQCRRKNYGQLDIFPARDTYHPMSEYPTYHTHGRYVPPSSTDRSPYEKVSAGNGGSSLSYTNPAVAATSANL
# experimental.details: flow cytometry on DA3-TM cells; table row 2 of 5, about 11 nM by the matching point in FIG. 3A

Worked cases, answers included:
{"binder": "HM2 LM1 variant of humanized anti-MUC1 antibody SP66 (antibody, V domains shown, Humanized IgG expressed in CHO cells; only variable domains tied to the variant) VH: EIQLVQSGAEVKKPGSSVKVSCKVTGHSITRGSSWHWMRQAPGQGLEWIGYIHYGGGTSYNPSLKSRITITRDTSTNTAYMELSSLRSEDTAFYFCARYSYDITYRWFFDVWGQGTLVTVSS VL: DIQMTQSPSTLSASVGDRVTITCRASQNIGTSIHWFQQKPGKAPKLLIKRASESISGVPSRFSGSGSGTEFTLTISSLQPDDFATYYCQQNNNWPLTFGQGTKVEVK", "endpoint.value": 10000}
{"binder": "HM2 LM2 variant of humanized anti-MUC1 antibody SP66 (antibody, V domains shown, Humanized IgG expressed in CHO cells; only variable domains tied to the variant) VH: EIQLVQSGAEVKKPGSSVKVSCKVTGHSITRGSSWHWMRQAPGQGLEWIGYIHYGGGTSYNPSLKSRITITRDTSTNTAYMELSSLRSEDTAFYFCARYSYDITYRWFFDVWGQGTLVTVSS VL: DIQMTQSPSTLSASVGDRVTITCRASQNIGTSIHWYQQKPGKAPKLLIKRASESISGVPSRFSGSGSGTEFTLTISSLQPDDFATYYCQQNNNWPLTFGQGTKVEVK", "endpoint.value": 15000}
{"binder": "HM4 LM3 variant of humanized anti-MUC1 antibody SP66 (antibody, V domains shown, Humanized IgG expressed in CHO cells; only variable domains tied to the variant) VH: EIQLVQSGAEVKKPGSSVKVSCKVTGHSITRGSSWHWMRQAPGQGLEWIGYIHYGGGTSYNPSLKSRATLTRDTSTNTFYMELSSLRSEDTAFYFCARYSYDITYRWFFDVWGQGTLVTVSS VL: DIQMTQSPSTLSASVGDRVTITCRASQNIGTSIHWYQQKPGKAPKLLIKYASESISGVPSRFSGSGSGTEFTLTISSLQPDDFATYYCQQNNNWPLTFGQGTKVEVK", "endpoint.value": 22300}

--- query ---
Field request: Geometric Mean : FL6-A | item: HM5 LM2 variant of humanized anti-MUC1 antibody SP66 (antibody, V domains shown, Humanized IgG expressed in CHO cells; only variable domains tied to the variant) VH: EIQLVQSGAEVKKPGSSVKVSCKVTGHSITRGSSWHWMRQAPGQGLEWIGYIHYGGGTSYNPSLKSRITITRDTSTNTFYMELSSLRSEDTAFYFCARYSYDITYRWFFDVWGQGTLVTVSS VL: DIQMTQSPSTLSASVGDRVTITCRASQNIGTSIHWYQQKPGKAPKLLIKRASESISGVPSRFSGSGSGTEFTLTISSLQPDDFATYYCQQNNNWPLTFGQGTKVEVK
23700
